# assay.overview: MRT (0 to t) in Sprague-Dawley rat at 50 mg/kg, ip measured afer 24 hrs by LC-MS/MS analysis
# Type: ADME, organism-based
# settings: in vivo
recorded.endpoint: MRT last at 24 h (h)
Field format: number, assumed h, no unit text.

Specify reported MRT last at 24 h for the molecule shown: `COc1ccc(C(=O)Nc2cc(-c3ccnc(N4CCC(O)CC4)c3)ccn2)cc1`
1.26

---

# Test system: Hs-578T
# assay.overview: cells
# settings: Homo sapiens, 72 h
recorded.endpoint: IC50 (nM)
Field format: number, assumed nM, no unit text.

Specify reported IC50 for the compound shown: `N[C@H]1CC[C@H](Nc2cc(-c3cccc(NCc4cccc(F)c4)n3)c(Cl)cn2)CC1`
74
